# Test target: factor D (Homo sapiens)
# Construct: made in house; host or cells: E. coli
# Sequence (P00746 26-253): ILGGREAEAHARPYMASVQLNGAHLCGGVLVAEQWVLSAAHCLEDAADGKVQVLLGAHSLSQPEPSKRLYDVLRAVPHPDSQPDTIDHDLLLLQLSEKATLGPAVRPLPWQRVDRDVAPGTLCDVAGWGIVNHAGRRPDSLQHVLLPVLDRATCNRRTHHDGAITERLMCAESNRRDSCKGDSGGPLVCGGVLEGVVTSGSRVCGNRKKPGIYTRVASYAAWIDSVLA
# Assay name: factor D inhibition assay of Biological Example 2
# Assay type: biochemical
Readout kind: log10(IC50) (log10 of the value in µM)

Compound | Numeric value
N[C@H](CC(F)(F)F)c1cccc(-c2cccc(COc3ccccc3CC(=O)O)c2)c1 [Example 196-H] | 0.07
NCc1cc(F)cc(-c2cc(OCc3ccncc3)cc(C(=O)Nc3ccccc3CC(=O)O)c2)c1 [Example 65] | -1.77
NCc1cc(F)cc(-c2cccc(C(=O)Nc3ccc(Cl)cc3CC(=O)O)n2)c1 [Example 21-P] | -0.93
NCc1cccc(-c2cc(COc3ccccc3CC(=O)O)c3cn[nH]c3c2)c1 [Example 179] | -2.40
C[C@@H](O)[C@@H](N)c1cccc(-c2cccc(COc3ccccc3CC(=O)O)c2)c1 [Example 190-G] | -0.91
C[C@@H](N)c1cccc(-c2cc(COc3ccccc3CC(=O)O)c3c(c2)OCO3)c1F [Example 253-E] | -1.89
COCc1cc(COc2ccccc2CC(=O)O)cc(-c2cccc([C@H](C)N)c2F)c1 [Example 120-I] | -1.60
Cc1cc(-c2cccc([C@@H](C)N)c2F)cc(COc2ccccc2CC(=O)O)c1C [Example 283] | -1.89
N[C@H](CO)c1cccc(-c2ccc3c(c2)C(Oc2ccccc2CC(=O)O)CCC3)c1 (mixture of isomers) [Example 181] | -2.10
NCc1cccc(-c2cc(COc3ccccc3CC(=O)O)cc(COc3ccccc3CC(=O)O)c2)c1 [Example 116-C] | -2.40
C[C@@H](N)c1cccc(-c2cccc(COc3ccccc3CC(=O)O)c2)c1Cl [Example 142-A] | -0.46
NCc1cccc(-c2csc(C(=O)Nc3ccccc3CC(=O)O)n2)c1 [Example 26-B] | -1.03
N[C@H](CO)c1cccc(-c2cccc(COc3ccccc3CC(=O)O)c2)c1Cl [Example 141-B] | -1.85
NCc1cccc(-c2cc(CNCC(F)(F)F)cc(COc3ccccc3CC(=O)O)c2)c1 [Example 208-E] | -2.52
COc1c(C(=O)Nc2ccccc2CC(=O)O)cccc1-c1cccc(CN)c1 [Example 91] | 1.35
CCC[C@@H](N)c1cccc(-c2cccc(COc3ccccc3CC(=O)O)c2)c1F [Example 195-B] | -0.97
NCc1cccc(-c2ccc3c(c2)C(Oc2ccccc2CC(=O)O)CCO3)c1 (single isomer, unassigned) [177 b) (tr = 3.2 min)] | -2.40
Cc1c(-c2cccc(COc3ccccc3CC(=O)O)c2)cccc1[C@H](N)CO [Example 142-C] | 1.70
N=C(N)c1cccc(-c2cccc(COc3ccccc3CC(=O)O)c2)c1 [Example 192-B] | -1.74
CCC[C@@H](N)c1cccc(-c2cc(COc3ccccc3CC(=O)O)cc(-c3ccccc3)c2)c1F [Example 200-B] | -1.66
NC(CCO)c1cccc(-c2cccc(C(=O)Nc3ccccc3CC(=O)O)c2)c1 (racemic) [Example 87] | -0.09
NCc1cccc(-c2cc(COc3ccccc3CC(=O)O)cc(C(N)C(F)(F)F)c2)c1 (racemic) [Example 207-B] | -2.30
CC[C@@H](N)c1cccc(-c2cccc(COc3ccccc3CC(=O)O)c2)c1 [Example 190-C] | 0.08
NCc1cccc(-c2ccc(Cl)c(C(=O)Nc3ccccc3CC(=O)O)n2)c1 [Example 56-A] | -0.97
NCc1cccc(-c2cccc(COc3cc(C(N)=O)ccc3CC(=O)O)c2)c1 [Example 294-C] | -2.00
NCc1cccc(-c2cncc(C(=O)Nc3ccccc3CC(=O)O)c2)c1 [Example 40] | 1.11
C[C@@H](N)c1cccc(-c2cc(COc3ccccc3CC(=O)O)cc(C(O)C(F)(F)F)c2)c1 (mixture of isomers) [116-H a)] | -3.00
N[C@H](CO)c1cccc(-c2cc(COc3ccccc3CC(=O)O)cc(NCC3CCCO3)c2F)c1 (mixture of isomers) [Example 157] | -2.30
COCCNc1cc(C(=O)Nc2ccccc2CC(=O)O)cc(-c2cc(F)cc(CN)c2)c1 [Example 14-E] | -2.00
C[C@@H](N)c1cccc(-c2cc(COc3ccccc3CC(=O)O)cc(OCC3(C)COC3)c2)c1 [Example 263] | -1.85
C[C@H](N)c1cccc(-c2cccc(COc3ccccc3CC(=O)O)c2)c1F [Example 142-H] | -1.66
C[C@H](N)c1cccc(-c2cc(COc3ccccc3CC(=O)O)cc(OCc3cncn3C)c2)c1F [Example 214-P] | -1.85
